# assayedSystem: HCoV-OC43 Mpro (Human coronavirus OC43)
# Sequence (P0C6X6 3247-3549 limits assumed): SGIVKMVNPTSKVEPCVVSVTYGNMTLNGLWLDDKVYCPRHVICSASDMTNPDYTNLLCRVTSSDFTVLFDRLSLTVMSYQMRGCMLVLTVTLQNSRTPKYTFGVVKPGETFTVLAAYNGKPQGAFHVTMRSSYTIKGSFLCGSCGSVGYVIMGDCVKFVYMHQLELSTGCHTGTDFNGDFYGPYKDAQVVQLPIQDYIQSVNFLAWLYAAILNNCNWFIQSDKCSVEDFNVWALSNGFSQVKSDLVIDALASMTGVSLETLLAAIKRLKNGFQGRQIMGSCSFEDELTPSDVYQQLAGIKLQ
# assayRemarks: HCoV-OC43 Mpro enzymatic inhibition assay (fluorescence)
# Assay type: biochemical
measuredMetric: IC50 (µM)

1. CC(C)(C)[C@H](NC(=O)C(F)(F)F)C(=O)N1C[C@H]2[C@@H]([C@H]1C(=O)N[C@H](C=O)C[C@@H]1CCNC1=O)C2(C)C ... 0.037
2. CC1(C)[C@@H]2[C@@H](C(=O)N[C@H](C=O)C[C@@H]3CCNC3=O)N(C(=O)C3CCCC3)C[C@@H]21 ... 0.49
3. CC(C)c1ccc(Cl)c2[nH]c(C(=O)N3C[C@H]4[C@@H]([C@H]3C(=O)N[C@H](C=O)C[C@@H]3CCNC3=O)C4(C)C)cc12 ... 0.0449
4. O=C[C@H](C[C@@H]1CCNC1=O)NC(=O)[C@@H]1C[C@@H]2C[C@@H]2N1C(=O)c1cc2ccccc2[nH]1 ... 0.284
5. CCc1cccc2[nH]c(C(=O)N3C[C@H]4[C@@H]([C@H]3C(=O)N[C@H](C=O)C[C@@H]3CCNC3=O)C4(C)C)cc12 ... 0.0394
6. CC1CCC(CC(=O)N2C[C@H]3[C@@H]([C@H]2C(=O)N[C@H](C=O)C[C@@H]2CCNC2=O)C3(C)C)CC1 (stereo partly drawn) ... 0.052

Recorded values, source patent US20260355212A1.
